Tested on: PC-14
assay.explanation: relative viability (nuclei count vs DMSO), 5 days (fraction); higher = more cells survive
test.context: first compound 2 µM
attribute.measured: relative viability
Numbers only.

molecule: CN1CCN(CCOc2cc(OC3CCOCC3)c3c(Nc4c(Cl)ccc5c4OCO5)ncnc3c2)CC1 [Saracatinib] + NC(=O)Nc1cc(-c2cccc(F)c2)sc1C(=O)N[C@H]1CCCNC1 [AZD7762] (partner 0.2 µM)
test.target: PC-14
relative viability: 0.203

Go through the list and state relative viability for each entry.
1. CN1CCN(CCOc2cc(OC3CCOCC3)c3c(Nc4c(Cl)ccc5c4OCO5)ncnc3c2)CC1 [Saracatinib] + CS(=O)(=O)N1CCN(Cc2cc3nc(-c4cccc5[nH]ncc45)nc(N4CCOCC4)c3s2)CC1 [Pictilisib] (partner 1 µM)
2. CN1CCN(CCOc2cc(OC3CCOCC3)c3c(Nc4c(Cl)ccc5c4OCO5)ncnc3c2)CC1 [Saracatinib] + COc1cccc2cc(-c3nc([C@H]4CC[C@H](C(=O)O)CC4)n4ncnc(N)c34)[nH]c12 [OSI-027] (partner 0.5 µM)
3. CN1CCN(CCOc2cc(OC3CCOCC3)c3c(Nc4c(Cl)ccc5c4OCO5)ncnc3c2)CC1 [Saracatinib] + O=C(CCCCCCC(=O)Nc1ccccc1)NO [Vorinostat] (partner 1 µM)

1: 0.0627; 2: 0.0888; 3: 0.0854

---

Test system: NCI-H650
assay.explanation: relative viability (nuclei count vs DMSO), 5 days (fraction); higher = more cells survive
test.context: first compound 0.001 µM
Could you please report measured relative viability for the items listed next?
Give bare numbers.

These recorded examples may help you get a feel for the data.
compound: Cc1cn(-c2cc(NC(=O)c3ccc(C)c(Nc4nccc(-c5cccnc5)n4)c3)cc(C(F)(F)F)c2)cn1 [Nilotinib] + O=C(CCCCCCC(=O)Nc1ccccc1)NO [Vorinostat] (partner 1 µM)
test.target: NCI-H650
relative viability: 0.392

compound: Cc1cn(-c2cc(NC(=O)c3ccc(C)c(Nc4nccc(-c5cccnc5)n4)c3)cc(C(F)(F)F)c2)cn1 [Nilotinib] + CS(=O)(=O)CCNCc1ccc(-c2ccc3ncnc(Nc4ccc(OCc5cccc(F)c5)c(Cl)c4)c3c2)o1 [Lapatinib] (partner 2 µM)
test.target: NCI-H650
relative viability: 0.897

compound: Cc1cn(-c2cc(NC(=O)c3ccc(C)c(Nc4nccc(-c5cccnc5)n4)c3)cc(C(F)(F)F)c2)cn1 [Nilotinib] + Nc1ncn([C@H]2C[C@H](O)[C@@H](CO)O2)c(=O)n1 [Decitabine] (partner 2 µM)
test.target: NCI-H650
relative viability: 0.295

compound: Cc1cn(-c2cc(NC(=O)c3ccc(C)c(Nc4nccc(-c5cccnc5)n4)c3)cc(C(F)(F)F)c2)cn1 [Nilotinib] + C[C@]1(O)C[C@@H](c2nc(-c3ccc4ccc(-c5ccccc5)nc4c3)c3c(N)nccn32)C1 [Linsitinib] (partner 1 µM)
test.target: NCI-H650
relative viability: 0.81

Now turn to the next compound.
Item Cc1cn(-c2cc(NC(=O)c3ccc(C)c(Nc4nccc(-c5cccnc5)n4)c3)cc(C(F)(F)F)c2)cn1 [Nilotinib] + O=C(c1cc(Cc2n[nH]c(=O)c3ccccc23)ccc1F)N1CCN(C(=O)C2CC2)CC1 [Olaparib] (partner 8 µM) : provide relative viability
0.357

---

Could you please report measured relative viability for the items listed next?
Tested on: NCI-H1651
assay.explanation: relative viability (nuclei count vs DMSO), 5 days (fraction); higher = more cells survive
test.context: first compound 2 µM
One number for each entry.

compound: Cc1csc(=NC2CCCCC2)n1/N=C/c1ccc(O)c(O)c1O [MIM1] + NC(=O)Nc1cc(-c2cccc(F)c2)sc1C(=O)N[C@H]1CCCNC1 [AZD7762] (partner 0.2 µM)
relative viability: 0.425

compound: Cc1csc(=NC2CCCCC2)n1/N=C/c1ccc(O)c(O)c1O [MIM1] + CC(=O)c1c(C)c2cnc(Nc3ccc(N4CCNCC4)cn3)nc2n(C2CCCC2)c1=O [Palbociclib] (partner 0.5 µM)
relative viability: 0.521

Go through the list and state relative viability for each entry.
1. CN1CCN(CCOc2cc(OC3CCOCC3)c3c(Nc4c(Cl)ccc5c4OCO5)ncnc3c2)CC1 [Saracatinib] + CC(=O)c1c(C)c2cnc(Nc3ccc(N4CCNCC4)cn3)nc2n(C2CCCC2)c1=O [Palbociclib] (partner 0.5 µM)
2. Cc1csc(=NC2CCCCC2)n1/N=C/c1ccc(O)c(O)c1O [MIM1] + N=C(N)NC(=N)NCCc1ccccc1 [Phenformin] (partner 250 µM)
3. CN1CCN(CCOc2cc(OC3CCOCC3)c3c(Nc4c(Cl)ccc5c4OCO5)ncnc3c2)CC1 [Saracatinib] + Nc1ncn([C@H]2C[C@H](O)[C@@H](CO)O2)c(=O)n1 [Decitabine] (partner 2 µM)
4. Cc1csc(=NC2CCCCC2)n1/N=C/c1ccc(O)c(O)c1O [MIM1] + O=C(c1cc(Cc2n[nH]c(=O)c3ccccc23)ccc1F)N1CCN(C(=O)C2CC2)CC1 [Olaparib] (partner 8 µM)
5. CN1CCN(CCOc2cc(OC3CCOCC3)c3c(Nc4c(Cl)ccc5c4OCO5)ncnc3c2)CC1 [Saracatinib] + COc1cc2c(Oc3ccc(NC(=O)C4(C(=O)Nc5ccc(F)cc5)CC4)cc3F)ccnc2cc1OCCCN1CCOCC1 [Foretinib] (partner 0.25 µM)
6. Cc1csc(=NC2CCCCC2)n1/N=C/c1ccc(O)c(O)c1O [MIM1] + C[C@]1(O)C[C@@H](c2nc(-c3ccc4ccc(-c5ccccc5)nc4c3)c3c(N)nccn32)C1 [Linsitinib] (partner 1 µM)
7. Cc1csc(=NC2CCCCC2)n1/N=C/c1ccc(O)c(O)c1O [MIM1] + CC(=O)Nc1cccc(-n2c(=O)n(C3CC3)c(=O)c3c(Nc4ccc(I)cc4F)n(C)c(=O)c(C)c32)c1 [Trametinib] (partner 0.02 µM)

0.567
0.39
0.626
0.177
0.657
1
0.866

State recorded relative viability with NCI-H1651, entry CN1CCN(CCOc2cc(OC3CCOCC3)c3c(Nc4c(Cl)ccc5c4OCO5)ncnc3c2)CC1 [Saracatinib] + Nc1nc2[nH]cc(CCc3ccc(C(=O)N[C@@H](CCC(=O)O)C(=O)O)cc3)c2c(=O)[nH]1 [Pemetrexed] (partner 0.2 µM) , no comment.
0.581

---

System: NCI-H647
assay.explanation: relative viability (nuclei count vs DMSO), 5 days (fraction); higher = more cells survive
test.context: first compound 6.325 µM
attribute.measured: relative viability
Give bare numbers.

These recorded examples may help you get a feel for the data.
compound: Cc1csc(=NC2CCCCC2)n1/N=C/c1ccc(O)c(O)c1O [MIM1] + Cc1nc(NC(=O)N2CCC[C@H]2C(N)=O)sc1-c1ccnc(C(C)(C)C(F)(F)F)c1 [Alpelisib] (partner 2 µM)
relative viability: 0.991

compound: Cc1csc(=NC2CCCCC2)n1/N=C/c1ccc(O)c(O)c1O [MIM1] + Nc1nc2[nH]cc(CCc3ccc(C(=O)N[C@@H](CCC(=O)O)C(=O)O)cc3)c2c(=O)[nH]1 [Pemetrexed] (partner 0.2 µM)
relative viability: 0.162

compound: Cc1csc(=NC2CCCCC2)n1/N=C/c1ccc(O)c(O)c1O [MIM1] + CS(=O)(=O)CCNCc1ccc(-c2ccc3ncnc(Nc4ccc(OCc5cccc(F)c5)c(Cl)c4)c3c2)o1 [Lapatinib] (partner 2 µM)
relative viability: 0.633

compound: Cc1csc(=NC2CCCCC2)n1/N=C/c1ccc(O)c(O)c1O [MIM1] + CS(=O)(=O)N1CCN(Cc2cc3nc(-c4cccc5[nH]ncc45)nc(N4CCOCC4)c3s2)CC1 [Pictilisib] (partner 1 µM)
relative viability: 0.42

Go through the list and state relative viability for each entry.
1. Cc1csc(=NC2CCCCC2)n1/N=C/c1ccc(O)c(O)c1O [MIM1] + CC(=O)Nc1cccc(-n2c(=O)n(C3CC3)c(=O)c3c(Nc4ccc(I)cc4F)n(C)c(=O)c(C)c32)c1 [Trametinib] (partner 0.02 µM)
2. Cc1csc(=NC2CCCCC2)n1/N=C/c1ccc(O)c(O)c1O [MIM1] + CC(C)C[C@H](NC(=O)[C@H](Cc1ccccc1)NC(=O)c1cnccn1)B(O)O [Bortezomib] (partner 0.002 µM)
3. Cc1csc(=NC2CCCCC2)n1/N=C/c1ccc(O)c(O)c1O [MIM1] + C[C@]1(O)C[C@@H](c2nc(-c3ccc4ccc(-c5ccccc5)nc4c3)c3c(N)nccn32)C1 [Linsitinib] (partner 1 µM)

1. 0.413
2. 0.769
3. 0.807

---

Test system: HCC-366
assay.explanation: relative viability (nuclei count vs DMSO), 5 days (fraction); higher = more cells survive
test.context: first compound 6.325 µM
Could you please report measured relative viability for the items listed next?
One number for each entry.

molecule: Cc1csc(=NC2CCCCC2)n1/N=C/c1ccc(O)c(O)c1O [MIM1] + CC(C)C[C@H](NC(=O)[C@H](Cc1ccccc1)NC(=O)c1cnccn1)B(O)O [Bortezomib] (partner 0.002 µM)
test.target: HCC-366
relative viability: 0.998

molecule: Cc1csc(=NC2CCCCC2)n1/N=C/c1ccc(O)c(O)c1O [MIM1] + O=C(c1cc(Cc2n[nH]c(=O)c3ccccc23)ccc1F)N1CCN(C(=O)C2CC2)CC1 [Olaparib] (partner 8 µM)
test.target: HCC-366
relative viability: 0.0373

molecule: Cc1csc(=NC2CCCCC2)n1/N=C/c1ccc(O)c(O)c1O [MIM1] + Cc1cc(Nc2cc(N3CCN(C)CC3)nc(Sc3ccc(NC(=O)C4CC4)cc3)n2)n[nH]1 [Tozasertib] (partner 0.1 µM)
test.target: HCC-366
relative viability: 0.026

molecule: Cc1csc(=NC2CCCCC2)n1/N=C/c1ccc(O)c(O)c1O [MIM1] + N=C(N)NC(=N)NCCc1ccccc1 [Phenformin] (partner 250 µM)
test.target: HCC-366
relative viability: 0.357

molecule: Cc1csc(=NC2CCCCC2)n1/N=C/c1ccc(O)c(O)c1O [MIM1] + CC(=O)Nc1cccc(-n2c(=O)n(C3CC3)c(=O)c3c(Nc4ccc(I)cc4F)n(C)c(=O)c(C)c32)c1 [Trametinib] (partner 0.02 µM)
test.target: HCC-366
relative viability: 0.0405

State recorded relative viability with HCC-366, entry Cc1csc(=NC2CCCCC2)n1/N=C/c1ccc(O)c(O)c1O [MIM1] + Cc1nc(Nc2ncc(C(=O)Nc3c(C)cccc3Cl)s2)cc(N2CCN(CCO)CC2)n1 [Dasatinib] (partner 0.075 µM) , no comment.
0.388
